pEC50 for assorted compounds
Tested on: heme oxygenase-1 (HO-1)
Test: HO-1 promoter luciferase reporter screen (pHOGL3/4.5+220 stable HEK293 cells)
Format: cell-based, human
Conditions: Homo sapiens; evaluation of thioquinolinones, Table 1; HEK293 HO-1 reporter; read-out: EC50
# pEC50: negative log10 of molar concentration; output just the value

Oc1c(F)c(F)c(CSc2cccc3cccnc23)c(F)c1F	5.98
COc1c(F)cc(CCSc2cccc3cccnc23)cc1F	4.70
Oc1c(F)cc(CSc2cccc3cccnc23)cc1Cl	6.38
Oc1ccc(CSc2cccc3cccnc23)cc1F	6.70
Oc1ccc(CCSc2cccc3cccnc23)cc1	4.72

Given `Oc1c(F)cc(CSc2cccc3cccnc23)cc1F` , state its recorded pEC50.
6.37

Given `Oc1c(F)cc(F)cc1CSc1cccc2cccnc12` , state its recorded pEC50.
5.28

Given `Oc1ccc(CSc2cccc3cccnc23)cc1` , state its recorded pEC50.
6.47

Given `Oc1ccc(CSc2cccc3cccnc23)cc1Cl` , state its recorded pEC50.
6.47

Given [O-][S+](Cc1cc(F)c(O)c(F)c1)c1cccc2cccnc12 (stereo not shown) , state its recorded pEC50.
6.47
